Data origin, for the record: paper PMC10140010

# TESTED SYSTEM: EGFR wild type (Homo sapiens)
# Sequence (P00533 25-1210): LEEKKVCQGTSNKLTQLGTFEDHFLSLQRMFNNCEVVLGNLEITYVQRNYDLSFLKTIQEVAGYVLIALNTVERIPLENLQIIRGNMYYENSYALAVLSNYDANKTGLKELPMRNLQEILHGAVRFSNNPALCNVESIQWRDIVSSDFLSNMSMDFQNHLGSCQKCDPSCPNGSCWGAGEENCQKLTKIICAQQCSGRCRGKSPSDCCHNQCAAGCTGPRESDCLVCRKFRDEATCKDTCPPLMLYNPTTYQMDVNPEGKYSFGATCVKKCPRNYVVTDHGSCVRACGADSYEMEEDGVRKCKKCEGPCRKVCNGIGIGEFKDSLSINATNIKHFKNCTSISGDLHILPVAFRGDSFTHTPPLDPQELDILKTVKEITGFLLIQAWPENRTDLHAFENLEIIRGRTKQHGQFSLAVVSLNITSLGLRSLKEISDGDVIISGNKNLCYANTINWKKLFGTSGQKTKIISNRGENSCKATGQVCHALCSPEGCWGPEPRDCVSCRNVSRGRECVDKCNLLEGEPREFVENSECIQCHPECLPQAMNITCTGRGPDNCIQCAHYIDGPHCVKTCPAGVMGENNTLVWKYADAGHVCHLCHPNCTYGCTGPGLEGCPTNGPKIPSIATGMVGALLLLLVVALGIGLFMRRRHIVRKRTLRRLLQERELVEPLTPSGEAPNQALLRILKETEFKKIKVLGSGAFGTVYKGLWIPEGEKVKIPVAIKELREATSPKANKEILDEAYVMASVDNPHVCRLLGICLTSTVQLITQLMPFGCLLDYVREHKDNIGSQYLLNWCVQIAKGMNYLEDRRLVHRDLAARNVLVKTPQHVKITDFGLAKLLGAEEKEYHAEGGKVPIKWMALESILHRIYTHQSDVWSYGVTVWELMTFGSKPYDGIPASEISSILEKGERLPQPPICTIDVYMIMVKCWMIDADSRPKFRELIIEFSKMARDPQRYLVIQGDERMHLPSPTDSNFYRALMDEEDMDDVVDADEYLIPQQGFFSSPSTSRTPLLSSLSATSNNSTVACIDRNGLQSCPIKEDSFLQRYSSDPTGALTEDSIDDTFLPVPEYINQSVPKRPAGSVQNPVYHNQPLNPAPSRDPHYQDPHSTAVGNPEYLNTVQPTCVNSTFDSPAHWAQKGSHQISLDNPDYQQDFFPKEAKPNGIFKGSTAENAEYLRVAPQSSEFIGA
QUANTITY MEASURED: pIC50
Interpret pIC50 as the negative base-10 log of the concentration measured in mol/L.

Query: Query (compound): COc1cc(N2CCC3(CCN(C)CC3)CC2)ccc1Nc1ncc(Cl)c(Nc2ccccc2P(C)(C)=O)n1 [Iruplinalkib] ; field requested: pIC50
Result: 7.46

====

# System: HCC-78 (SLC34A2-ROS1) cells
# PROCEDURE SUMMARY: Cell proliferation (CellTiter-Glo)
# Type: cell-based
# CONDITION PARAMETERS: Homo sapiens, HCC78
QUANTITY MEASURED: IC50 (nM)
All answers are understood in nM, so give the number only.

Query: Query (compound): COc1cc(N2CCC3(CCN(C)CC3)CC2)ccc1Nc1ncc(Cl)c(Nc2ccccc2P(C)(C)=O)n1 [Iruplinalkib] ; field requested: IC50
Result: 228
